Organism: Homo sapiens
Experiment: Selectivity index, ratio of IC50 for human recombinant MAO-A to IC50 for human recombinant MAO-B
property.measured: Ratio IC50

For orientation, consider the following solved cases.
item.smiles: COc1ccccc1CN(C)Cc1ccc(/C=C2\COc3cc(OC)c(OC)cc3C2=O)cc1O
Ratio IC50: > 19.4

item.smiles: COc1cc2c(cc1OC)C(=O)/C(=C/c1ccc(CN(C)C)c(O)c1)CO2
Ratio IC50: > 22.7

What value of Ratio IC50 has been recorded for this entry: CCN(CC)Cc1ccc(/C=C2\COc3cc(OC)c(OC)cc3C2=O)cc1O
> 8.2

I would be grateful if you could share the reported Ratio IC50 for CCN(Cc1ccc(/C=C2\COc3cc(OC)c(OC)cc3C2=O)cc1O)Cc1ccccc1N(C)C .
> 14.9

Fill in the blank: the reported Ratio IC50 of COc1cc2c(cc1OC)C(=O)/C(=C/c1ccc(CN3CCN(C)CC3)c(O)c1)CO2 is ____.
> 21.9

Dear colleague, I am looking for the recorded Ratio IC50 of the following compound: COc1cc2c(cc1OC)C(=O)/C(=C/c1ccc(CN(C)Cc3ccccc3)c(O)c1)CO2
> 17.4

What value of Ratio IC50 has been recorded for this entry: CCN(Cc1ccc(/C=C2\COc3cc(OC)c(OC)cc3C2=O)cc1O)Cc1ccccc1OC
> 13.3

What value of Ratio IC50 has been recorded for this entry: COc1cc2c(cc1OC)C(=O)/C(=C/c1ccc(CN3CCCC3)c(O)c1)CO2
> 27.7

Fill in the blank: the reported Ratio IC50 of CCN(Cc1ccccc1)Cc1ccc(/C=C2\COc3cc(OC)c(OC)cc3C2=O)cc1O is ____.
> 11.6

---

Biological target: Amine oxidase [flavin-containing] A (Homo sapiens)
Sequence (P21397 whole entry): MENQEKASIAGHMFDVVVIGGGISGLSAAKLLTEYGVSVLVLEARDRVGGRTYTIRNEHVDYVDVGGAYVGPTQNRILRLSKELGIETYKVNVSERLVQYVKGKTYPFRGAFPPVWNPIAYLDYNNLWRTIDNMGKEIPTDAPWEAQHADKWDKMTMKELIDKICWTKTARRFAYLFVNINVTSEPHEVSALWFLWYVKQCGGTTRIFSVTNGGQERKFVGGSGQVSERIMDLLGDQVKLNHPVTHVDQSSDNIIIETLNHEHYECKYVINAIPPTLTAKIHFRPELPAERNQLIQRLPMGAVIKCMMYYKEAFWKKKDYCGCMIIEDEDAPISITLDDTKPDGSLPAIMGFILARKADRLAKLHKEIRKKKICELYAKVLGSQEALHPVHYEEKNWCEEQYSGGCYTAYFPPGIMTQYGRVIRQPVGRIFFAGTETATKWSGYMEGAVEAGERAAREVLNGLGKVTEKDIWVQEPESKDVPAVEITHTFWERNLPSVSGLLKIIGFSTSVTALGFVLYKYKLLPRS
Assay: Inhibition of human recombinant MAO-A using kynuramine as substrate at 20 uM measured after 30 mins by fluorescence assay relative to control
Settings: 0.5 h
property.measured: inhibition (%)
Express the result in % but write the number alone.

Worked examples, 4 compounds total:
item.smiles: COc1cc2c(cc1OC)C(=O)/C(=C/c1cccc(O)c1CN1CCOCC1)CO2
units.label: %
inhibition: 2.1
--
item.smiles: COc1cc2c(cc1OC)C(=O)/C(=C/c1cccc(O)c1)CO2
units.label: %
inhibition: 21.9
--
item.smiles: COc1cc2c(cc1OC)C(=O)/C(=C/c1cccc(O)c1CN1CCN(C)CC1)CO2
units.label: %
inhibition: 6.8
--
item.smiles: COc1ccccc1CN(C)Cc1c(O)cccc1/C=C1\COc2cc(OC)c(OC)cc2C1=O
units.label: %
inhibition: 9.8

Alright, here's another compound for you.
Could you share which inhibition value was measured for COc1cc2c(cc1OC)C(=O)/C(=C/c1ccc(O)c(CN3CCCCC3)c1)CO2 ?
17

---

Target: UniProtKB Q9JKC1
Sequence (Q9JKC1 as listed by the source): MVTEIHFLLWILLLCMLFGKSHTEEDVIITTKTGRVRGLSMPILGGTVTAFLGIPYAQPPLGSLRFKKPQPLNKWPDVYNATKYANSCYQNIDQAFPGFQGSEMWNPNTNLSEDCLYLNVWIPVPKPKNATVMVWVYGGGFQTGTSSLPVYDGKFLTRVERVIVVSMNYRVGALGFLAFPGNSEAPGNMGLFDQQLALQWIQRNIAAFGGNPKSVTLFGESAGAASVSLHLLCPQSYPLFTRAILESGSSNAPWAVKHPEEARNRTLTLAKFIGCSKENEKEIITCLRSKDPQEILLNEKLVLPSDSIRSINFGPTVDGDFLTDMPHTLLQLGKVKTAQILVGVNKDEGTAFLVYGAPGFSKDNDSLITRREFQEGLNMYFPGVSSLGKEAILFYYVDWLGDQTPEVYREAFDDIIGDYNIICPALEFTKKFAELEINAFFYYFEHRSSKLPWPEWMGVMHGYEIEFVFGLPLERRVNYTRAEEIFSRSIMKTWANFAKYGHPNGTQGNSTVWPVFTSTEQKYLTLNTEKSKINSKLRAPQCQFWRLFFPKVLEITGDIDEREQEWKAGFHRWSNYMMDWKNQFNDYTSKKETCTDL
Test: Inhibition of rat serum BuChE at 50 uM measured after 15 mins by Ellman's method relative to control
Below is a list of entries, each paired with its recorded inhibition value.
Reply with just the number (in %).

item.smiles: COc1ccccc1CN(C)Cc1ccc(/C=C2\COc3cc(OC)c(OC)cc3C2=O)cc1O
units.label: %
inhibition: 11.2

item.smiles: CCN(Cc1ccc(/C=C2\COc3cc(OC)c(OC)cc3C2=O)cc1O)Cc1ccccc1OC
units.label: %
inhibition: 22.7

item.smiles: COc1cc2c(cc1OC)C(=O)/C(=C/c1ccc(CN3CCCC3)c(O)c1)CO2
units.label: %
inhibition: 24.1

item.smiles: COc1cc2c(cc1OC)C(=O)/C(=C/c1cccc(O)c1)CO2
units.label: %
inhibition: 6.18

item.smiles: CCN(Cc1ccc(/C=C2\COc3cc(OC)c(OC)cc3C2=O)cc1O)Cc1ccccc1N(C)C
units.label: %
inhibition: 44.6

Entry COc1cc2c(cc1OC)C(=O)/C(=C/c1ccc(CN3CCCCC3)c(O)c1)CO2 has what inhibition?
19.8

So what's the measured inhibition for this one? COc1cc2c(cc1OC)C(=O)/C(=C/c1cccc(O)c1CN1CCOCC1)CO2
7.85

Would you mind telling me what inhibition value was observed for CCN(CC)Cc1c(O)cccc1/C=C1\COc2cc(OC)c(OC)cc2C1=O ?
6.31

Request the reported inhibition associated with COc1ccccc1CN(C)Cc1c(O)cccc1/C=C1\COc2cc(OC)c(OC)cc2C1=O
16

inhibition lookup needed for CCN(CC)Cc1ccc(/C=C2\COc3cc(OC)c(OC)cc3C2=O)cc1O , thanks.
7.72

---

Biological target: Amyloid-beta precursor protein (Homo sapiens) (UniProt P05067)
Sequence (P05067 whole entry, the tested form may be a part): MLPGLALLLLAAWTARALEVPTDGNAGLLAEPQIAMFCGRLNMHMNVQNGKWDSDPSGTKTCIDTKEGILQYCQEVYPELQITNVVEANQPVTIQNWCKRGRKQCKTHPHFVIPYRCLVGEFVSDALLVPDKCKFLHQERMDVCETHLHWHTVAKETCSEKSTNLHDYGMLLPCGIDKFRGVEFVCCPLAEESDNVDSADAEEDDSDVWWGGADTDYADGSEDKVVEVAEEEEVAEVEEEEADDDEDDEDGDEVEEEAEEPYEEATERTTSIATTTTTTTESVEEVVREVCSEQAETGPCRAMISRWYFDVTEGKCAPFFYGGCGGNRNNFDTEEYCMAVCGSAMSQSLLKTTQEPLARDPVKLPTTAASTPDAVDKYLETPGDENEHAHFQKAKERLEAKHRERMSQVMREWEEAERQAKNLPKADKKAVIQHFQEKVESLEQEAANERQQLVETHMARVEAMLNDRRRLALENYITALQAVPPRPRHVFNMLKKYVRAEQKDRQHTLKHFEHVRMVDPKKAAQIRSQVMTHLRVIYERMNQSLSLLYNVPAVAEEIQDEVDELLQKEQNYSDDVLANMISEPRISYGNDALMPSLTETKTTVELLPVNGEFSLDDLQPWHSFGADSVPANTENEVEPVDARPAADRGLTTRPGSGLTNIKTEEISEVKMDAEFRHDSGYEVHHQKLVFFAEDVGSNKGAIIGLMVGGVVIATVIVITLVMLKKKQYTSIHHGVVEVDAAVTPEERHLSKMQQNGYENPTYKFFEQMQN
Experiment: Inhibition of self-mediated aggregation of amyloid beta (1 to 42 residues) (unknown origin) at 25 uM incubated for 24 hrs by Thioflavin T fluorescence assay relative to control
Recorded measurements of inhibition, one per entry
Note: unit % is implicit; provide only the numeric part.

item.smiles: COc1cc2c(cc1OC)C(=O)/C(=C/c1ccc(CN3CCOCC3)c(O)c1)CO2
assay.system: Amyloid-beta precursor protein (Homo sapiens) (UniProt P05067)
units.label: %
experimental.value: 28.3

item.smiles: COc1cc2c(cc1OC)C(=O)/C(=C/c1ccc(CN(C)Cc3ccccc3)c(O)c1)CO2
assay.system: Amyloid-beta precursor protein (Homo sapiens) (UniProt P05067)
units.label: %
experimental.value: 7.7

item.smiles: CCN(Cc1ccccc1)Cc1ccc(/C=C2\COc3cc(OC)c(OC)cc3C2=O)cc1O
assay.system: Amyloid-beta precursor protein (Homo sapiens) (UniProt P05067)
units.label: %
experimental.value: 32.7

item.smiles: COc1ccccc1CN(C)Cc1ccc(/C=C2\COc3cc(OC)c(OC)cc3C2=O)cc1O
assay.system: Amyloid-beta precursor protein (Homo sapiens) (UniProt P05067)
units.label: %
experimental.value: 37.8

item.smiles: COc1cc2c(cc1OC)C(=O)/C(=C/c1ccc(CN3CCN(C)CC3)c(O)c1)CO2
assay.system: Amyloid-beta precursor protein (Homo sapiens) (UniProt P05067)
units.label: %
experimental.value: 41.9

item.smiles: COc1cc2c(cc1OC)C(=O)/C(=C/c1cccc(O)c1)CO2
assay.system: Amyloid-beta precursor protein (Homo sapiens) (UniProt P05067)
units.label: %
experimental.value: 20.1

Requested read-out: inhibition. Entry: CCN(Cc1ccc(/C=C2\COc3cc(OC)c(OC)cc3C2=O)cc1O)Cc1ccccc1N(C)C
59.6

Which inhibition reading was recorded for the compound COc1ccccc1CN(C)Cc1c(O)cccc1/C=C1\COc2cc(OC)c(OC)cc2C1=O ?
35.6

Can you look up the measured inhibition of CCN(CC)Cc1c(O)cccc1/C=C1\COc2cc(OC)c(OC)cc2C1=O for me?
20.1

State the recorded inhibition for this entry: COc1cc2c(cc1OC)C(=O)/C(=C/c1ccc(CN3CCCC3)c(O)c1)CO2
37.3

# input compound: CCN(Cc1ccc(/C=C2\COc3cc(OC)c(OC)cc3C2=O)cc1O)Cc1ccccc1OC ; wanted: its inhibition
44

Returns the measured inhibition for the input compound. Input: CCN(CC)Cc1ccc(/C=C2\COc3cc(OC)c(OC)cc3C2=O)cc1O
21.2

---

Reported Ratio IC50 values follow for various molecules
Species on record: Homo sapiens
Assay: Selectivity index, ratio of IC50 for human recombinant MAO-A to IC50 for human recombinant MAO-B

Solved entries (count: 3):
item.smiles: COc1cc2c(cc1OC)C(=O)/C(=C/c1ccc(CN3CCOCC3)c(O)c1)CO2
experimental.value: > 19.8
//
item.smiles: COc1cc2c(cc1OC)C(=O)/C(=C/c1ccc(CN3CCCCC3)c(O)c1)CO2
experimental.value: > 11.5
//
item.smiles: COc1cc2c(cc1OC)C(=O)/C(=C/c1ccc(O)c(CN3CCCCC3)c1)CO2
experimental.value: > 1.4

Look up Ratio IC50 for this molecule: COc1cc2c(cc1OC)C(=O)/C(=C/c1cccc(O)c1)CO2
> 105

---

UniProt:O42275: recorded pIC50 for assorted molecules
Sequence (O42275 whole entry): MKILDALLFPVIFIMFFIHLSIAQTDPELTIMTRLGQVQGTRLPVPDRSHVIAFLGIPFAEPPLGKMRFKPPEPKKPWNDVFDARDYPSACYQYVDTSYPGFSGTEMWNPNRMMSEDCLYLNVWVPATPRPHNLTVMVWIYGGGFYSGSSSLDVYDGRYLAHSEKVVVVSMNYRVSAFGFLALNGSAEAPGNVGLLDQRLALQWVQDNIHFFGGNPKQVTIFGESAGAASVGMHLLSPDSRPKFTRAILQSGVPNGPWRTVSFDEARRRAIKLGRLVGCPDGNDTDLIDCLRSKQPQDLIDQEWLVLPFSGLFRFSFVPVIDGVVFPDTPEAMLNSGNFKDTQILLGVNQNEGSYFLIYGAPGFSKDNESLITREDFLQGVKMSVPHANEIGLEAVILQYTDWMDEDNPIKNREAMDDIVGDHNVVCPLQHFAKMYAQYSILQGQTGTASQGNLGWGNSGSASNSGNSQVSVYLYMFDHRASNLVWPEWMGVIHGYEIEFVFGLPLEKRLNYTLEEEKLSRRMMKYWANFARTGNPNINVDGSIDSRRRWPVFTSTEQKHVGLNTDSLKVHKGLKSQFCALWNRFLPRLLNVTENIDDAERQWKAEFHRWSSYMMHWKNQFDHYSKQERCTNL
Remember, pIC50 is on a log scale: it is -log10 of the molar concentration.

# count of solved cases: 3
item.smiles: CCN(Cc1ccccc1)Cc1c(O)cccc1/C=C1\COc2cc(OC)c(OC)cc2C1=O
experimental.value: 3.76
//
item.smiles: COc1cc2c(cc1OC)C(=O)/C(=C/c1ccc(CN3CCCC3)c(O)c1)CO2
experimental.value: 6.44
//
item.smiles: COc1ccccc1CN(C)Cc1c(O)cccc1/C=C1\COc2cc(OC)c(OC)cc2C1=O
experimental.value: 4.48

// moving on: another record for pIC50
Dear colleague, I am looking for the recorded pIC50 of the following molecule: COc1cc2c(cc1OC)C(=O)/C(=C/c1ccc(CN3CCOCC3)c(O)c1)CO2
5.89

---

Target: Amine oxidase [flavin-containing] B (Homo sapiens)
Sequence (P27338 whole entry): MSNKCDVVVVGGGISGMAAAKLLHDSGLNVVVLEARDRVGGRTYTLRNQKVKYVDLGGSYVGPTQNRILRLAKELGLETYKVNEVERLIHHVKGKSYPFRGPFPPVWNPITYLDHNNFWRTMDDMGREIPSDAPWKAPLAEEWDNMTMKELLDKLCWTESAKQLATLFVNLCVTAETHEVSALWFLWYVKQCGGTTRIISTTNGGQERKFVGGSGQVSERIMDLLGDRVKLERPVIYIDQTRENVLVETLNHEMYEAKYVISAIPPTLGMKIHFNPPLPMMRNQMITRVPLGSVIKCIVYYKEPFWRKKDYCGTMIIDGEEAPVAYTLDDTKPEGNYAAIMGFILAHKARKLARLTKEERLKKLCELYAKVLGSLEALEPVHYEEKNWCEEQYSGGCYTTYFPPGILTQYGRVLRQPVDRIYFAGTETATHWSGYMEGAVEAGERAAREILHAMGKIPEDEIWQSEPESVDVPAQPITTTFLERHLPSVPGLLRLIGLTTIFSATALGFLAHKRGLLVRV
property.measured: log10 of IC50 (log10 of the value in nM)
Could you please treat all values as log10 of IC50 in nM?

Study these solved cases before continuing.
item.smiles: CCN(CC)Cc1ccc(/C=C2\COc3cc(OC)c(OC)cc3C2=O)cc1O
log10 of IC50: 3.39
//
item.smiles: COc1cc2c(cc1OC)C(=O)/C(=C/c1ccc(CN(C)Cc3ccccc3)c(O)c1)CO2
log10 of IC50: 3.06
//
item.smiles: CCN(Cc1ccccc1)Cc1ccc(/C=C2\COc3cc(OC)c(OC)cc3C2=O)cc1O
log10 of IC50: 3.24
//
item.smiles: COc1cc2c(cc1OC)C(=O)/C(=C/c1ccc(O)c(CN3CCCCC3)c1)CO2
log10 of IC50: 4.15
//
item.smiles: COc1cc2c(cc1OC)C(=O)/C(=C/c1ccc(CN3CCN(C)CC3)c(O)c1)CO2
log10 of IC50: 2.96

Find the measured log10 of IC50: item CCN(Cc1ccc(/C=C2\COc3cc(OC)c(OC)cc3C2=O)cc1O)Cc1ccccc1N(C)C , target or system Amine oxidase [flavin-containing] B (Homo sapiens).
3.13

Hi! What's the reported log10 of IC50 for CCN(Cc1ccc(/C=C2\COc3cc(OC)c(OC)cc3C2=O)cc1O)Cc1ccccc1OC on Amine oxidase [flavin-containing] B (Homo sapiens)?
3.18

Request - read-out log10 of IC50 | tested on Amine oxidase [flavin-containing] B (Homo sapiens) | compound COc1cc2c(cc1OC)C(=O)/C(=C/c1ccc(CN3CCCCC3)c(O)c1)CO2
3.24

Hi! What's the reported log10 of IC50 for COc1cc2c(cc1OC)C(=O)/C(=C/c1ccc(CN3CCCC3)c(O)c1)CO2 on Amine oxidase [flavin-containing] B (Homo sapiens)?
2.86

Lab note: need log10 of IC50 with Amine oxidase [flavin-containing] B (Homo sapiens) for entry COc1cc2c(cc1OC)C(=O)/C(=C/c1ccc(CN3CCOCC3)c(O)c1)CO2 , please look it up.
3.00

What measured log10 of IC50 is associated with COc1cc2c(cc1OC)C(=O)/C(=C/c1cccc(O)c1)CO2 on Amine oxidase [flavin-containing] B (Homo sapiens)?
2.28

Observed log10 of IC50 on Amine oxidase [flavin-containing] B (Homo sapiens) for COc1cc2c(cc1OC)C(=O)/C(=C/c1ccc(CN(C)C)c(O)c1)CO2 , please.
2.95

Look up log10 of IC50 with Amine oxidase [flavin-containing] B (Homo sapiens) for this compound: COc1ccccc1CN(C)Cc1ccc(/C=C2\COc3cc(OC)c(OC)cc3C2=O)cc1O
3.01
